Across several publications, the following Ki results were reported for D(4) dopamine receptor (Homo sapiens, UniProt P21917).
assayed.target: D(4) dopamine receptor (Homo sapiens, UniProt P21917)
Sequence (P21917 whole entry): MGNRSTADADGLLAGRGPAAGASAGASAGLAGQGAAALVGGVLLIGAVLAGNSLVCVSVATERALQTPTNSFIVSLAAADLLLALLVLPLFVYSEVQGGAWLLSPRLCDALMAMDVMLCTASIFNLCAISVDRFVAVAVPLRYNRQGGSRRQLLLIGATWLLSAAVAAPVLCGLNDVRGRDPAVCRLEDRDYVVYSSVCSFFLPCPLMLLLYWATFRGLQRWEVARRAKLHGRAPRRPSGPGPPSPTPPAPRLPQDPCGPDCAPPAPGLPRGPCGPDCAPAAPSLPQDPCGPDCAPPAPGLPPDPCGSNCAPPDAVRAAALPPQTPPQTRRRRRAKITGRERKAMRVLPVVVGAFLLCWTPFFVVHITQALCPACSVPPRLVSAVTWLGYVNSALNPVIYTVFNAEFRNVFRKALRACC
Number only, in nM; omit the unit.

Reported Ki, molecule c1ccc(CCC2CN(Cc3nc4ccccc4[nH]3)CCO2)cc1 (racemic) : ____
140

Consider the molecule Cc1nn(C2CCN(Cc3cccc(C#N)c3)CC2)cc1-c1ccccc1 and give its measured Ki.
1.2

Which Ki reading was recorded for the molecule COc1ccccc1N1CCN(CCCNC(=O)NN(Cc2ccccc2F)c2ccc(Cl)cc2)CC1 ?
2.6

Using the record for Cc1ccc(N2CCN(Cc3ccc4oc(=O)ccc4c3)CC2)cc1 , report its Ki.
11

Fill in: Ki of N#[11C]c1cccc(N2CCN(CCN3CCC(C(F)(F)F)CC3)C2=O)c1 is ___
170

Quick check: Ki of COc1ccccc1N1CCN(CCCCCc2cn(-c3ccc(-c4ccsc4)cc3)nn2)CC1 ?
163

Consider the molecule COC(=O)c1cccc2c1CC[C@H]1[C@H]2c2cc(O)c(Cl)cc2CCN1C and give its measured Ki.
4830

Bench note: what Ki did N#Cc1ccc2cc(CN3CCN(c4ccc(Cl)c(Cl)c4)CC3)[nH]c2c1 show?
9

Name the recorded Ki for O=C(c1ccc2ccccc2c1)N1CCC(NCc2ccccc2)CC1 .
167

Entry under review: O=C(NCc1ccccc1CN1CCc2cc(O)c(O)cc2C1)c1cccc(Br)c1 . Reported Ki?
101

// query Ki value for entry Cc1c(-c2ccc(Cl)cc2)nc(N)nc1C1CCN(CCc2ccccc2)CC1
4.7

====

Here's a roundup of Ki values tested on D(4) dopamine receptor (Homo sapiens), taken from various published works.
Report as a plain number; the unit nM is understood.

Hello, I am looking for reported Ki with D(4) dopamine receptor (Homo sapiens) for COc1ccccc1N1CCN(CCCCCCNS(=O)(=O)c2ccc3ccccc3c2)CC1 . Could you help?
9.62

Give Ki (D(4) dopamine receptor (Homo sapiens)) of the following compound: CN1CCC(c2ccccc2)(c2ccccc2)C1
35400

Notebook: pull reported Ki for D(4) dopamine receptor (Homo sapiens), entry COc1ccccc1N1CCN(CCCNC(=O)NN(Cc2ccccc2)c2ccc(Cl)cc2Cl)CC1
15

Request - read-out Ki | tested on D(4) dopamine receptor (Homo sapiens) | compound COc1ccccc1N1CCN(Cc2cc(CN3CCN(c4ccccc4OC)CC3)c3cccccc2-3)CC1
0.79

D(4) dopamine receptor (Homo sapiens) / Ki / COc1cc(N)c(Cl)cc1C(=O)N[C@H]1CCN(Cc2ccccc2)C[C@@H]1C (stereo in doubt; 3a) : value?
35

Missing value: Ki, D(4) dopamine receptor (Homo sapiens), entry Clc1cccc(N2CCN(Cc3c[nH]c4ccccc34)CC2)c1Cl . Fill in?
6.2

Recorded Ki for CN1CCN(C2=Nc3cc(Cl)ccc3N(NC(=O)c3cccc4ccccc34)c3ccccc32)CC1 with D(4) dopamine receptor (Homo sapiens), please?
977

Please tell me: Ki of CN1CCN(C2=Nc3cc(Cl)ccc3N(NC(=O)c3ccccc3Cl)c3ccccc32)CC1 , system D(4) dopamine receptor (Homo sapiens)?
870

Request: Ki, test system D(4) dopamine receptor (Homo sapiens), entry CCCN(CCc1ccsc1)C1CCc2c(O)cccc2C1 (stereo unspecified)
72

Enter reported Ki observed with D(4) dopamine receptor (Homo sapiens) for Clc1ccc(CN2CCOC(CCc3ccccc3)C2)cc1 (racemic)
81

====

assayed.target: D(4) dopamine receptor (Homo sapiens, UniProt P21917)
Sequence (P21917 whole entry): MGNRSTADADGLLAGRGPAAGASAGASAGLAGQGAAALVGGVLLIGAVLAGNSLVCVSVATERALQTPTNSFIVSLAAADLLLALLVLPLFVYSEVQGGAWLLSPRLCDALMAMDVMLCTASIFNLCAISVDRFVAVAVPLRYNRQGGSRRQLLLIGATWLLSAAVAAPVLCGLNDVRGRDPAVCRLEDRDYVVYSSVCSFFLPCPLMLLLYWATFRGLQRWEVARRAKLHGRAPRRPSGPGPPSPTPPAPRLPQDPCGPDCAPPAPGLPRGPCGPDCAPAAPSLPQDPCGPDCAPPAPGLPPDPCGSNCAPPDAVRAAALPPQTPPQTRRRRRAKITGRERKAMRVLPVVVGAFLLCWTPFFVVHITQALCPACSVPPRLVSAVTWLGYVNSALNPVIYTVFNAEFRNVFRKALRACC
Below are Ki values for D(4) dopamine receptor (Homo sapiens, UniProt P21917) collected from several publications.
Give your result in nM as a bare value.

Consider the molecule c1ccc(-n2cc(CN3CCN(c4cc5ccc4CCc4ccc(cc4)CC5)CC3)cn2)cc1 and give its measured Ki.
45

Which value of Ki has been reported for Clc1ccc(-n2cc(CCCCCN3CCN(c4ccccc4)CC3)cn2)cc1 in the records?
1180

Fill in the blank: the reported Ki of O=C(CCCCCCCCCCCCC(=O)OC1(c2ccc(Cl)cc2)CCN(CCCC(=O)c2ccc(F)cc2)CC1)OC1(c2ccc(Cl)cc2)CCN(CCCC(=O)c2ccc(F)cc2)CC1 is ____.
490

Endpoint output: Ki of CCCc1c(C(=O)NCCCCN2CCN(c3ccccc3OC)CC2)nnn1Cc1ccccc1 . Value?
302

Would you kindly share the measured Ki for c1ccc(N2CCN(Cc3cnn(-c4ccccc4)c3)CC2)cc1 ?
1

Would you mind telling me what Ki value was observed for O=C(NCCCN1CCN(c2ncccn2)CC1)NN(Cc1ccccc1)c1ccccc1 ?
18

What measured Ki goes with COc1cc2ccccc2cc1CC(=O)CC1CCN(Cc2ccccc2)CC1 ?
200

// Ki lookup, key: O=C(CCc1cn(CCOCCOCCOCCn2cc(CCC(=O)OC3(c4ccc(Cl)cc4)CCN(CCCC(=O)c4ccc(F)cc4)CC3)nn2)nn1)OC1(c2ccc(Cl)cc2)CCN(CCCC(=O)c2ccc(F)cc2)CC1
41

Request the reported Ki associated with O=C1COc2c(N3CCN(CCCCOc4ccn5ncc(/C=N/O)c5c4)CC3)ccc(O)c2N1 (stereo in doubt; 9d)
3.9

====

Target protein (sequence): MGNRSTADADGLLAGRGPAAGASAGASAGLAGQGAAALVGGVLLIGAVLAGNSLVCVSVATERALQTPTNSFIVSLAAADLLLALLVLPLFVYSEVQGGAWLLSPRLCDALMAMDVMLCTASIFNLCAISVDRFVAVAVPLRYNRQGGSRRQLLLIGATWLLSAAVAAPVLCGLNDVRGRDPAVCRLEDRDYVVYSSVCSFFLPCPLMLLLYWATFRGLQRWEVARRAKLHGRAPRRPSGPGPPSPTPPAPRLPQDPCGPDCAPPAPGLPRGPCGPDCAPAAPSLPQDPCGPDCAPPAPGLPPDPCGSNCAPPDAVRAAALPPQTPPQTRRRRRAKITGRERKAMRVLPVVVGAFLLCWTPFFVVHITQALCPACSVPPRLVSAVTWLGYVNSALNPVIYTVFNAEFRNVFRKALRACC
Let's look at some Ki data for the protein given by its sequence that I collected from the literature.

Which Ki is listed for CN1CCc2ccccc2Cc2[nH]c3ccccc3c2CC1C(=O)O (racemic) ?
> 10 µM

So what does the record say about Ki for COc1cccc(N2CCN(CCCCn3ncc(=O)n(C)c3=O)CC2)c1 ?
> 10 µM

Requested field: Ki. Item: O=C(NCCC(O)CN1CCN(c2cccc(Cl)c2Cl)CC1)c1cc2cc(I)ccc2o1 (stereo not drawn)
> 10 µM

====

Compiled Ki measurements on D(4) dopamine receptor (Homo sapiens, UniProt P21917) taken from the literature.
assayed.target: D(4) dopamine receptor (Homo sapiens, UniProt P21917)
Sequence (P21917 whole entry): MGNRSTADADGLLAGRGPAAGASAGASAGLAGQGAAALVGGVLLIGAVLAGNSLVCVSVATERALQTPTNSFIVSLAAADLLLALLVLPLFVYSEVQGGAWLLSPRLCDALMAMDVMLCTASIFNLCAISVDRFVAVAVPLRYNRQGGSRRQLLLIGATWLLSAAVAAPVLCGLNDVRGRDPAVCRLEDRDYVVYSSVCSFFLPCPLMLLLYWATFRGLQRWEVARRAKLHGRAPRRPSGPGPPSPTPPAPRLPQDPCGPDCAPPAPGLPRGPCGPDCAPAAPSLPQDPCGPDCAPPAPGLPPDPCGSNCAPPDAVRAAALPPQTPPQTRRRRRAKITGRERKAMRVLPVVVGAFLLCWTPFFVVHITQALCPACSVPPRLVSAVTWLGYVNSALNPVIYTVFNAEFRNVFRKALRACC
Label key: YES means Ki under 0.09 µM; NO means Ki of 0.09 µM or more.

Criterion: Ki strictly below 0.09 µM. Is it met by N#Cc1ccccc1N1CCN(CNC(=O)c2ccc(Cl)cc2)CC1 ?
YES

Below 0.09 µM on Ki? Entry Clc1ccc(-n2cc(CN3CCN(c4ccccc4)CC3)cn2)cc1
NO

I'd appreciate it if you could check whether O=C(NC1CCN(Cc2ccccc2Cl)CC1)c1cccc2ccccc12 has Ki smaller than 0.09 µM.
NO

State whether 0.09 µM exceeds Ki recorded for C=CCOC1(c2ccc(Cl)cc2)CCN(Cc2c[nH]c3ccccc23)CC1 .
NO

Regarding CN(C)CCN(Cc1ccc(-c2ccc(CNCCc3ccccc3)cc2)cc1)C(=O)CCC1CCCC1 , kindly confirm whether its Ki is beneath 0.09 µM.
NO

is_below(Ki, 0.09 µM) for Cc1ccc(CN2CCC(NC(=O)c3cccc4ccccc34)CC2)cc1 ?
YES

Criterion: Ki strictly below 0.09 µM. Is it met by O=C(NC1CCN(CCCc2ccccc2)CC1)c1ccc2ccccc2c1 ?
YES

Determine if Cc1ccc(OCCCNCCOc2ccc(C)cc2)cc1 shows Ki strictly lower than 0.09 µM.
YES

hey, is Ki for CCCN(CCCCNC(=O)/N=N/c1ccc(F)c(F)c1)C1Cc2ccccc2C1 lower than 0.09 µM or not?
YES

Does this molecule meet the criterion Ki < 0.09 µM? Cc1cccc(OCCNCCCOc2ccccc2)c1
YES

Lab note: confirm whether the reported Ki for this molecule is below 0.09 µM, equality not counting. molecule: COc1ccccc1N1CCN(CCCOc2ccc3ccc(=O)[nH]c3c2)CC1
YES

Criterion: Ki strictly below 0.09 µM. Is it met by Clc1cccc(OCCNCCCOc2ccccc2)c1 ?
YES

# strict comparison: is reported Ki < 0.09 µM? input = COc1cccc(OC)c1C(=O)NN1c2ccc(Cl)cc2N=C(N2CCN(C)CC2)c2ccccc21
NO

Could you please tell me whether Ki recorded for O=c1[nH]c2ccc3c(c2[nH]1)OC(CNCc1ccccc1)CC3 (racemic) is less than 0.09 µM?
YES

Here's an entry: c1ccc(CC[C@H]2CN(Cc3nc4ccccc4[nH]3)CCO2)cc1 . Is its Ki below 0.09 µM?
NO

Does the reported Ki of the following molecule sit strictly below 0.09 µM? COc1ccc2[nH]c(C(=O)NCCC(O)CN3CCN(c4cccc(Cl)c4Cl)CC3)cc2c1 (stereo not drawn)
NO

Given the entry COc1ccccc1N1CCN(CCCCn2cc(-c3ccc(N)cc3)nn2)CC1 , would its reported Ki be below 0.09 µM?
NO

hey, is Ki for CN1CCc2cc(Cl)c(O)cc2[C@H]2c3cccc(/C=N/Oc4ccccc4)c3CC[C@@H]21 lower than 0.09 µM or not?
NO

Identify whether the molecule O=C(NCN1CCN(c2ccccc2Cl)CC1)c1ccccc1 records Ki below 0.09 µM.
NO

Just wondering, is Ki of COc1ccc(N2CCN(CCC3NC(=O)c4ccccc43)CC2)cc1 (stereo not drawn) below 0.09 µM?
YES

Given COc1ccc(-c2cc(CCCCN3CCN(c4ccccc4OC)CC3)on2)c(OC)c1 , is recorded Ki strictly lower than 0.09 µM?
YES

Lab note: confirm whether the reported Ki for this molecule is below 0.09 µM, equality not counting. molecule: CN1C(=O)c2ccccc2C1CCN1CCN(c2ccc(Cl)cc2)CC1 (stereo not drawn)
YES

Answer whether the molecule COc1ccccc1N1CCN(CCNC(=O)NN(Cc2ccccc2)c2ccc(F)cc2)CC1 has Ki strictly less than 0.09 µM
YES

Criterion: Ki strictly below 0.09 µM. Is it met by C(=C\c1cc(CCCCN2CCN(C(c3ccccc3)c3ccccc3)CC2)on1)/c1ccccc1 ?
NO

Given the entry COc1ccc(N2CCN(CCC3c4ccccc4C(=O)N3C)CC2)cc1 (stereo not drawn) , would its reported Ki be below 0.09 µM?
NO

Is it true that Ki reported for COc1ccccc1N1CCN(CCCCn2cc(-c3cccnc3)nn2)CC1 is less than 0.09 µM?
NO

Hello, I'm reviewing records and need to know if Ki of Cc1nc(Cl)c(Sc2ccc(Cl)cc2)c(NC2CCN(Cc3ccccc3)CC2)n1 is below 0.09 µM. Could you check?
YES

Does the reported Ki of C#Cc1ccc2c(c1)CCN(CCCCN1CCN(c3ccccc3OC)CC1)C2=O stay below 0.09 µM?
YES

Answer whether the molecule Clc1ccc2[nH]ccc2c1-[n+]1cc[n+](Cc2ccccc2)cc1 has Ki strictly less than 0.09 µM
YES

Does the reported Ki of the following molecule sit strictly below 0.09 µM? Clc1cccc(N2CCN(CCCc3cn(-c4ccn5nccc5c4)nn3)CC2)c1Cl
YES

Find out if reported Ki for Cc1ccccc1CO[C@H]1CCCN(Cc2cn3ccccc3n2)C1 is less than 0.09 µM
NO
